# experimental_target: CCKA (Cavia porcellus, UniProt Q63931)
# Construct: The pancreatata were homogenised in 40 ml ice-cold HEPES buffer using a polytron; from tissue; host or cells: pancreas membranes of male Dunkin Hartley guinea-pigs
# Sequence (Q63931 whole entry): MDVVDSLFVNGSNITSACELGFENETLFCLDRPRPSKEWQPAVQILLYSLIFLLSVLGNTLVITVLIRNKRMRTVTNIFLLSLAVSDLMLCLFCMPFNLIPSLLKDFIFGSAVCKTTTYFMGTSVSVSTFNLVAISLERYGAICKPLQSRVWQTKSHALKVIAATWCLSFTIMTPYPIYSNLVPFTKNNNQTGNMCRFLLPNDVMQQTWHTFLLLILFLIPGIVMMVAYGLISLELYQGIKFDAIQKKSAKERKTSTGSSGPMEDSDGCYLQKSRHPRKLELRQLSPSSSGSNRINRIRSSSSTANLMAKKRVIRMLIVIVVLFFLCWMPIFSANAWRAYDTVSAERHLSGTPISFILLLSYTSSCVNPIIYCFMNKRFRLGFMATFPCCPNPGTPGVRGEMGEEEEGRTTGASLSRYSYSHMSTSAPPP
# procedure_details: CCKA radioligand binding assay in guinea-pig pancreas membranes ([125I]-CCK8(S))
# condition_info: PD134,308 present, 150 minutes at 21±3°, read-out: CCKA pKi (converted)
parameter_measured: log10(Ki) (log10 of the value in µM)
Short version: log10 scale, Ki, µM.

O=C(O)c1cc(NC(=O)[C@H](Cc2ccccc2)NC(=O)c2cc3cc[nH]c3cc2C(=O)NCC23CC4CC(CC(C4)C2)C3)cc(C(=O)O)c1 :: 0.30
O=C(NCC12CC3CC(CC(C3)C1)C2)c1cc(Cl)c(Cl)cc1C(=O)N1CCC[C@@H]1C(=O)O :: 0.70
O=C(NCC12CC3CC(CC(C3)C1)C2)c1cc2[nH]ccc2cc1C(=O)N[C@@H](Cc1ccccc1)C(=O)Nc1cccc(-c2nn[nH]n2)c1 :: -0.40
COC(=O)[C@@H]1CCCN1C(=O)c1cc2ccccc2cc1C(=O)NCC12CC3CC(CC(C3)C1)C2 :: 0.40
O=C(O)c1cc(NC(=O)[C@H](Cc2ccccc2)NC(=O)c2cc3[nH]c4ccccc4c3cc2C(=O)NCC23CC4CC(CC(C4)C2)C3)cc(C(=O)O)c1 :: 0.10
COC(=O)[C@H](C)NC(=O)c1cc2ccccc2cc1C(=O)NCC12CC3CC(CC(C3)C1)C2 :: 1.10

Qu. Param request: log10(Ki) | system CCKA (Cavia porcellus, UniProt Q63931) | item "O=C(O)c1cc(NC(=O)[C@H](Cc2ccccc2F)NC(=O)c2cc3[nH]cnc3cc2C(=O)NCC2CCCCCC2)cc(C(=O)O)c1"
Ans. 0.90

Qu. Param request: log10(Ki) | system CCKA (Cavia porcellus, UniProt Q63931) | item "O=C(NCC12CC3CC(CC(C3)C1)C2)c1cc2nc[nH]c2cc1C(=O)N[C@@H](Cc1ccccc1)C(=O)NCc1ccc(F)cc1"
Ans. 0.30

====

# experimental_target: gastrin (Rattus norvegicus, UniProt P30553)
# Construct: The stomach was lowered into a jacketed organ bath containing 40 ml of buffered solution; from tissue; host or cells: isolated perfused whole stomach of immature rats (ca. 21 days old)
# Sequence (P30553 1-452): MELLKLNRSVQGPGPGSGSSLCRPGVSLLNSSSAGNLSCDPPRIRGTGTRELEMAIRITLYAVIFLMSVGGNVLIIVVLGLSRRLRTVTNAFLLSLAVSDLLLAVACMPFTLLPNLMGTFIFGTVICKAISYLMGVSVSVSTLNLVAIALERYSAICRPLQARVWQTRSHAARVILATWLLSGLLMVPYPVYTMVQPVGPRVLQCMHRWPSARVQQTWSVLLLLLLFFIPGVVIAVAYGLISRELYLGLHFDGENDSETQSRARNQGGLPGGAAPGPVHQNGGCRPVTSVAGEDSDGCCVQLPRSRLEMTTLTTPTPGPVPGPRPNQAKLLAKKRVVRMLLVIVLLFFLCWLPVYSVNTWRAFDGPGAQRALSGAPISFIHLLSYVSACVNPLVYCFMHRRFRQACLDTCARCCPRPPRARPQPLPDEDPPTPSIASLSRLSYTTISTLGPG
# procedure_details: gastrin antagonist activity in an immature rat stomach assay (pentagastrin-stimulated acid secretion)
# condition_info: cumulative pentagastrin dose-response curves after 60 min with drug, read-out: Gastrin pKB (converted)
# Kb annotations
Number plus unit, in that order.

O=C(O)CNC(=O)[C@H]1CCCN1C(=O)c1cc2[nH]cnc2cc1C(=O)NCC12CC3CC(CC(C3)C1)C2 :: 126 nM
COC(=O)c1cc(NC(=O)[C@H](Cc2ccccc2)NC(=O)c2cc3[nH]cnc3cc2C(=O)NCC23CC4CC(CC(C4)C2)C3)cc(C(=O)OC)c1 :: 126 nM
O=C(NCC12CC3CC(CC(C3)C1)C2)c1cc2[nH]ccc2cc1C(=O)N[C@@H](Cc1ccccc1)C(=O)Nc1cc(-c2nn[nH]n2)cc(-c2nn[nH]n2)c1 :: 2.51 nM
O=C(O)c1ccc(Cl)c(NC(=O)[C@H](Cc2ccccc2)NC(=O)c2cc3[nH]cnc3cc2C(=O)NCC23CC4CC(CC(C4)C2)C3)c1 :: 31.6 nM
O=C(O)c1cc(NC(=O)[C@@H](Cc2ccccc2)NC(=O)c2cc3[nH]cnc3cc2C(=O)NCC23CC4CC(CC(C4)C2)C3)cc(C(=O)O)c1 :: 2 nM

Please find the next molecule below.
Qu. Indicate its recorded Kb; the molecule in question is "O=C(O)c1cc(NC(=O)[C@H](Cc2ccccc2C(F)(F)F)NC(=O)c2cc3[nH]cnc3cc2C(=O)NCC23CC4CC(CC(C4)C2)C3)cc(C(=O)O)c1"
Ans. 7.94 nM

====

# Gastrin pKB annotations
# experimental_target: gastrin (Rattus norvegicus)
# Construct: The stomach was lowered into a jacketed organ bath containing 40 ml of buffered solution; from tissue; host or cells: isolated perfused whole stomach of immature rats (ca. 21 days old)
# procedure_details: gastrin antagonist activity in an immature rat stomach assay (pentagastrin-stimulated acid secretion)
# condition_info: cumulative pentagastrin dose-response curves after 60 min with drug
Please give only the number in your answer, with no unit.

Here are 5 molecules together with their reported answers.
O=C(O)CNC(=O)[C@@H](Cc1ccccc1)NC(=O)c1cc2cc[nH]c2cc1C(=O)NCC12CC3CC(CC(C3)C1)C2 :: 8.0
O=C(O)c1cc(NC(=O)[C@H](Cc2ccccc2)NC(=O)c2cc3[nH]cnc3cc2C(=O)NCC23CC4CC(CC(C4)C2)C3)ccc1F :: 7.7
O=C(O)c1cc(NC(=O)[C@H](Cc2ccccc2)NC(=O)c2cc3ccccc3cc2C(=O)NCC23CC4CC(CC(C4)C2)C3)cc(C(=O)O)c1 :: 8.2
CC(=O)Oc1cc(OC(C)=O)c2cc(C(=O)N[C@@H](Cc3ccccc3)C(=O)Nc3cc(C(=O)O)cc(C(=O)O)c3)c(C(=O)NCC34CC5CC(CC(C5)C3)C4)cc2c1 :: 7.9
O=C(O)c1cc(NC(=O)[C@H](Cc2ccccc2Cl)NC(=O)c2cc3[nH]cnc3cc2C(=O)NCC23CC4CC(CC(C4)C2)C3)cc(C(=O)O)c1 :: 8.9

Qu. Indicate its recorded Gastrin pKB; the molecule in question is "Cn1cnc2cc(C(=O)N[C@@H](Cc3ccccc3)C(=O)Nc3cc(C(=O)O)cc(C(=O)O)c3)c(C(=O)NCC34CC5CC(CC(C5)C3)C4)cc21"
Ans. 9.0

Qu. Indicate its recorded Gastrin pKB; the molecule in question is "CC(=O)n1ccc2cc(C(=O)N[C@@H](Cc3ccccc3)C(=O)Nc3cc(C(=O)O)cc(C(=O)O)c3)c(C(=O)NCC34CC5CC(CC(C5)C3)C4)cc21"
Ans. 8.7

Qu. Indicate its recorded Gastrin pKB; the molecule in question is "O=C(O)c1cc(NC(=O)[C@H](Cc2ccccc2)NC(=O)c2ccc3[nH]cnc3c2C(=O)NCC23CC4CC(CC(C4)C2)C3)cc(C(=O)O)c1"
Ans. 8.2

Qu. Indicate its recorded Gastrin pKB; the molecule in question is "CC(=O)Oc1cc(OC(C)=O)c2cc(C(=O)NCC34CC5CC(CC(C5)C3)C4)c(C(=O)N[C@@H](Cc3ccccc3)C(=O)Nc3cc(C(=O)O)cc(C(=O)O)c3)cc2c1"
Ans. 8.1

Qu. Indicate its recorded Gastrin pKB; the molecule in question is "C[C@@H](NC(=O)C[C@@H]1CCCN1C(=O)c1cc2ccccc2cc1C(=O)NCC12CC3CC(CC(C3)C1)C2)C(=O)O"
Ans. 6.2

Qu. Indicate its recorded Gastrin pKB; the molecule in question is "Nc1cccc2cc(C(=O)N[C@@H](Cc3ccccc3)C(=O)Nc3cc(C(=O)O)cc(C(=O)O)c3)c(C(=O)NCC34CC5CC(CC(C5)C3)C4)cc12"
Ans. 8.2

Qu. Indicate its recorded Gastrin pKB; the molecule in question is "O=C(O)c1cc(NC(=O)[C@H](Cc2ccccc2F)NC(=O)c2cc3[nH]cnc3cc2C(=O)NCC23CC4CC(CC(C4)C2)C3)cc(C(=O)O)c1"
Ans. 9.1

====

# log10 of Ki annotations
# experimental_target: CCKA (Cavia porcellus, UniProt Q63931)
# Construct: The pancreatata were homogenised in 40 ml ice-cold HEPES buffer using a polytron; from tissue; host or cells: pancreas membranes of male Dunkin Hartley guinea-pigs
# procedure_details: CCKA radioligand binding assay in guinea-pig pancreas membranes ([125I]-CCK8(S))
# condition_info: PD134,308 present, 150 minutes at 21±3°, read-out: CCKA pKi (converted)
Short version: log10 scale, Ki, µM.

COC(=O)c1cc(NC(=O)[C@H](Cc2ccccc2)NC(=O)c2cc3ccccc3cc2C(=O)NCC23CC4CC(CC(C4)C2)C3)cc(C(=O)O)c1 :: -0.30
O=C(NCC12CC3CC(CC(C3)C1)C2)c1cc2cc[nH]c2cc1C(=O)N[C@@H](Cc1ccccc1)C(=O)Nc1cc(-c2nn[nH]n2)cc(-c2nn[nH]n2)c1 :: -0.80
Cc1ccc(C(=O)O)cc1NC(=O)[C@H](Cc1ccccc1)NC(=O)c1cc2[nH]cnc2cc1C(=O)NCC12CC3CC(CC(C3)C1)C2 :: 0.30
O=C(O)c1cccc2cccc(C(=O)NCC34CC5CC(CC(C5)C3)C4)c12 :: 1.00
O=C(O)c1cc(NC(=O)[C@H](Cc2ccc(F)cc2)NC(=O)c2cc3[nH]cnc3cc2C(=O)NCC23CC4CC(CC(C4)C2)C3)cc(C(=O)O)c1 :: 0.60

Qu. Indicate its recorded log10 of Ki; the compound in question is "O=C(O)c1cc2ccccc2cc1C(=O)NCC12CC3CC(CC(C3)C1)C2"
Ans. 0.90
